- system-tested: P2X purinoceptor 3 (Homo sapiens, UniProt P56373)
- Sequence (P56373 whole entry): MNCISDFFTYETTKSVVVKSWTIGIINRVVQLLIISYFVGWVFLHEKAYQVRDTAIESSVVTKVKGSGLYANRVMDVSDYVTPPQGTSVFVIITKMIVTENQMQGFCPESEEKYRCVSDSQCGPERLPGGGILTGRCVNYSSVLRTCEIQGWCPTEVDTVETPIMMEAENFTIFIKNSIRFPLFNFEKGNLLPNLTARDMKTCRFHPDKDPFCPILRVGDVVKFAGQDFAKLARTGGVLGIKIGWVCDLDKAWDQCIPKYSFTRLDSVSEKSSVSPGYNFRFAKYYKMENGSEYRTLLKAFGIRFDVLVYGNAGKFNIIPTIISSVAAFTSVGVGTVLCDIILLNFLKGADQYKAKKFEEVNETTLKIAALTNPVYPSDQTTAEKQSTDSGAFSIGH
reported-property: Ki

Past entries and their recorded results:
Nc1ncnc2c1ncn2[C@@H]1O[C@H](COP(=O)(O)CP(=O)(O)OP(=O)(O)O)[C@@H](O)[C@H]1O; 0.009 µM
Nc1ncnc2c1ncn2C1OC(COP(=O)(O)OP(=O)(O)OP(O)(O)=S)C(O)C1O (stereo unspecified) [NSC_440317]; 0.0403 µM
Nc1ncnc2c1ncn2[C@@H]1O[C@H](COP(=O)(O)CP(=O)(O)O)[C@@H](O)[C@H]1O; > 10 µM
Nc1ncnc2c1ncn2[C@@H]1O[C@H](CO[P@](=O)(O)O[P@](=O)(O)OC[C@H]2O[C@@H](n3cnc4c(N)ncnc43)[C@H](O)[C@@H]2O)[C@@H](O)[C@H]1O [NSC_0]; > 10 µM
Nc1ncnc2c1ncn2C1OC(COP(=O)(O)OP(=O)(O)OP(=O)(O)OP(=O)(O)OP(=O)(O)OP(=O)(O)OCC2OC(n3cnc4c(N)ncnc43)C(O)C2O)C(O)C1O (stereo unspecified) [NSC_123694]; 0.0048 µM

Problem: Could you please provide reported Ki for Nc1ncnc2c1ncn2[C@@H]1O[C@H](COP(=O)(O)OP(=O)(O)CP(=O)(O)O)[C@@H](O)[C@H]1O [adenylylmethylenediphosphonate] ? Thanks!
Solution: 0.387 µM

====

Quick record: Ki, P2X purinoceptor 3 (Homo sapiens, UniProt P56373).
Report only the number, with the unit µM understood.

Consider the reported Ki for these compounds:
Nc1ncnc2c1ncn2[C@H]1C[C@H](O)[C@@H](COP(=O)(O)OP(=O)(O)OP(=O)(O)O)O1; 0.18
Nc1ncnc2c1ncn2[C@@H]1O[C@H](COP(=O)(O)OP(=O)(O)OP(=O)(O)O)C[C@H]1O [NSC_0]; 0.0473
Nc1ncnc2c1ncn2C1OC(COP(=O)(O)OP(=O)(O)OP(=O)(O)OP(=O)(O)OP(=O)(O)OCC2OC(n3cnc4c(N)ncnc43)C(O)C2O)C(O)C1O (stereo not drawn) [NSC_440210]; 0.0104
Nc1ncnc2c1ncn2[C@@H]1O[C@H](COP(=O)(O)OP(=O)(O)S)[C@@H](O)[C@H]1O (stereo partly drawn) [CAS_123848]; 0.297
Nc1c(S(=O)(=O)O)cc(Nc2ccc(Nc3nc(Cl)nc(Nc4ccccc4S(=O)(=O)O)n3)c(S(=O)(=O)O)c2)c2c1C(=O)c1ccccc1C2=O; 2.53
Nc1ncnc2c1ncn2[C@H]1CC[C@@H](COP(=O)(O)OP(=O)(O)OP(=O)(O)O)O1; 0.406

Problem: State measured Ki of the compound Nc1ncnc2c1ncn2[C@@H]1O[C@H](COP(=O)(O)OP(=O)(O)OP(=O)(O)O)[C@@H](O)[C@H]1O with P2X purinoceptor 3 (Homo sapiens, UniProt P56373).
Solution: 0.0146

Problem: Enter measured Ki, system P2X purinoceptor 3 (Homo sapiens, UniProt P56373), for the compound shown: Nc1ncnc2c1ncn2C1OC(COP(=O)(O)OP(=O)(O)OP(=O)(O)OC2C(CO)OC(n3cnc4c(N)ncnc43)C2O)C(O)C1O (stereo not drawn) [CAS_3035419]
Solution: 1.67
